tested-system: UniProt:P06276
Sequence (P06276 whole entry): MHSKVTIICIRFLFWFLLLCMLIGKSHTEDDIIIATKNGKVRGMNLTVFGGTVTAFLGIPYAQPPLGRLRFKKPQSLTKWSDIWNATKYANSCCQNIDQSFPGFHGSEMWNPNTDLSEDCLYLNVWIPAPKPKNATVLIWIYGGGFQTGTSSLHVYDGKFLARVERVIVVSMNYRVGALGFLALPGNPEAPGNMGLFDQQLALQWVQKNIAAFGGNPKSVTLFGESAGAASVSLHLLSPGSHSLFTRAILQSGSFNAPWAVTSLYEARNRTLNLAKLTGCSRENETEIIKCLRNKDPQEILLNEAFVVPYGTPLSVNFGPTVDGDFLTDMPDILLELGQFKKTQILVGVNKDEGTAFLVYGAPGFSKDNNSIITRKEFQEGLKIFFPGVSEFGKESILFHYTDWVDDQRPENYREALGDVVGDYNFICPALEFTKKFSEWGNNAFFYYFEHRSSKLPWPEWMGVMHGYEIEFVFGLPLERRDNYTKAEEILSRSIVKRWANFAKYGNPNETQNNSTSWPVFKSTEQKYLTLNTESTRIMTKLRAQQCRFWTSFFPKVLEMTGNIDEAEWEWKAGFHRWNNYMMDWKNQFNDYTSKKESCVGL
experiment: Inhibition of human serum BuChE using butyrylthiocholine iodide as substrate preincubated for 15 mins followed by substrate addition by Ellman's method
pIC50 values for the compounds below.
Note on units: pIC50 is unitless, being -log10 of a concentration expressed in mol/L.

Recorded pIC50, per entry:
q: For the compound shown here, CN(CCCOc1ccc2ccc(=O)oc2c1)Cc1cccc(OC(=O)NCCCCCCc2ccccc2)c1 , give the reported pIC50.
a: 8.55

q: For the compound shown here, O=C(NCCCCCc1ccccc1)Oc1cccc(Cn2cc(COc3ccc4ccc(=O)oc4c3)nn2)c1 , give the reported pIC50.
a: 7.37

q: For the compound shown here, CN(CCCCCOc1ccc2ccc(=O)oc2c1)Cc1cccc(OC(=O)NCCCCCc2ccccc2)c1 , give the reported pIC50.
a: 8.91

q: For the compound shown here, O=C(NCCCCCc1ccccc1)Oc1ccc(Cn2cc(COc3ccc4ccc(=O)oc4c3)nn2)cc1 , give the reported pIC50.
a: 8.93

Others:
q: For the compound shown here, CN(CCCOc1ccc2cc(-c3ccccc3)c(=O)oc2c1)Cc1cccc(OC(=O)NCCCCCc2ccccc2)c1 , give the reported pIC50.
a: 8.69

q: For the compound shown here, COc1ccc(-c2cc3ccc(OCCCN(C)Cc4cccc(OC(=O)NCCCCCc5ccccc5)c4)cc3oc2=O)cc1 , give the reported pIC50.
a: 8.89

q: For the compound shown here, Cc1cc(=O)oc2cc(OCCCN(C)Cc3cccc(OC(=O)NCCCCCc4ccccc4)c3)ccc12 , give the reported pIC50.
a: 8.56

q: For the compound shown here, CN(CCCOc1ccc2c3c(c(=O)oc2c1)CCCC3)Cc1cccc(OC(=O)NCCCCCc2ccccc2)c1 , give the reported pIC50.
a: 8.84

q: For the compound shown here, O=C(NCCCCCc1ccccc1)Oc1ccc(-n2cc(COc3ccc4ccc(=O)oc4c3)nn2)cc1 , give the reported pIC50.
a: 5.91

q: For the compound shown here, CCCCCCc1ccc(NC(=O)Oc2cccc(CN(C)CCCOc3ccc4ccc(=O)oc4c3)c2)cc1 , give the reported pIC50.
a: 7.49

* * *

tested-system: UniProtKB P22303
Sequence (P22303 whole entry): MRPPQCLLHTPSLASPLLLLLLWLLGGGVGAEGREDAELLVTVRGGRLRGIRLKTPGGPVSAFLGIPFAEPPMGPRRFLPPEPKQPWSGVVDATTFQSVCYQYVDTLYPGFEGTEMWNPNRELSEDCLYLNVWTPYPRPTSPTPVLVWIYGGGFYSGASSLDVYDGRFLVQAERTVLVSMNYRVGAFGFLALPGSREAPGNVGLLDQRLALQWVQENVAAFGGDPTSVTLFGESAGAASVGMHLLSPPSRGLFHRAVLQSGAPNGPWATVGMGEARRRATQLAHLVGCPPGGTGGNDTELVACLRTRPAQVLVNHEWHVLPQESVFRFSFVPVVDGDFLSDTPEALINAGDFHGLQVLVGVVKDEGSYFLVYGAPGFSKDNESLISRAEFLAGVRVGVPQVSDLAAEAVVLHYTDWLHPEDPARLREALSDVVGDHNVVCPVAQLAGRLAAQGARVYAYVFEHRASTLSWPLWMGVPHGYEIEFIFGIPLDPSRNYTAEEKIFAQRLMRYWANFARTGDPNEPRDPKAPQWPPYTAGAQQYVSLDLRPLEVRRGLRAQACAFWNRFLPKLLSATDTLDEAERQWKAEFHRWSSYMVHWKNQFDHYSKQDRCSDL
experiment: Inhibition of recombinant human AChE expressed in HEK293 cells using acetylthiocholine iodide as substrate preincubated for 120 mins followed by substrate addition by Ellman's method
IC50 values for the compounds below.
Mention the unit after the number when you answer.

q: For the compound shown here, CN(CCCOc1ccc2cc(-c3ccccc3)c(=O)oc2c1)Cc1cccc(OC(=O)NCCCCCc2ccccc2)c1 , give the reported IC50.
a: 125 nM

Others:
q: For the compound shown here, CCCCCCCNC(=O)Oc1cccc(CN(C)CCCOc2ccc3c4c(c(=O)oc3c2)CCCC4)c1 , give the reported IC50.
a: 21.6 nM

q: For the compound shown here, Cc1cc(=O)oc2cc(OCCCN(C)Cc3cccc(OC(=O)NCCCCCc4ccccc4)c3)ccc12 , give the reported IC50.
a: 80.5 nM

q: For the compound shown here, CN(CCCOc1ccc2c(c1)oc(=O)c1ccccc12)Cc1cccc(OC(=O)NCCCCCc2ccccc2)c1 , give the reported IC50.
a: 390 nM

q: For the compound shown here, O=C(NCCCCCc1ccccc1)Oc1cccc(Cn2cc(COc3ccc4ccc(=O)oc4c3)nn2)c1 , give the reported IC50.
a: 922 nM

q: For the compound shown here, CCCCCCCNC(=O)Oc1cccc(CN(C)CCCOc2ccc3c(=O)c4cccnc4oc3c2)c1 , give the reported IC50.
a: 13 nM

The measured values listed here are drawn from ChEMBL document CHEMBL3826877.
